- assay-notes: Phase I trial of oral PCLX-001: plasma pharmacokinetics, noncompartmental analysis (Phoenix WinNonlin 8.3)
- Assay type: in vivo, human
- assay-conditions: human, plasma, po, 100 mg, Table 9; Patient 115-002-012; Day 1; 100 mg QD oral; Pantoprazole No
parameter-measured: Cmax (ng/mL)
Kindly provide the numeric value in ng/mL only, without the unit symbol.

// fetch Cmax given entry `Cc1c(NS(=O)(=O)c2c(Cl)cc(-c3ccnc(N4CCNCC4)c3)cc2Cl)c(CC(C)C)nn1C` 1210

====

- assay-notes: Phase I trial of oral PCLX-001: plasma pharmacokinetics, noncompartmental analysis (Phoenix WinNonlin 8.3)
- Assay type: in vivo, human
- assay-conditions: human, plasma, oral, 140 mg, Table 5; Mean (CV); on Pantoprazole; 140 mg; N 2; Day 1
parameter-measured: AUC(0-inf) (ng·h/mL)
Kindly provide the numeric value in ng·h/mL only, without the unit symbol.

// fetch AUC(0-inf) given entry Cc1c(NS(=O)(=O)c2c(Cl)cc(-c3ccnc(N4CCNCC4)c3)cc2Cl)c(CC(C)C)nn1C [PCLX-001] 7830

====

- assay-notes: Phase I trial of oral PCLX-001: plasma pharmacokinetics, noncompartmental analysis (Phoenix WinNonlin 8.3)
- Assay type: in vivo, human
- assay-conditions: human, plasma, po, 20 mg, Table 6; Patient 115-002-001; Day 1; 20 mg QD oral; Pantoprazole No; read-out: AUClast or AUCtau
- Text: The clinical trial is entitled “Phase I Trial of PCLX-001 in B-cell Non-Hodgkin Lymphoma and Advanced Solid Malignancies” and registered at clinicaltrials.gov as NCT04836195. It is a phase I dose-escalation study of oral PCLX-001, conducted in a multicenter, non-randomized, open-label, non-controlled design. The study is comprised of two parts: Part A (single-agent dose escalation) and Part B (single-agent expansion cohorts). […]
parameter-measured: AUC(0-t) (ng·h/mL)
Kindly provide the numeric value in ng·h/mL only, without the unit symbol.

// fetch AUC(0-t) given entry `Cc1c(NS(=O)(=O)c2c(Cl)cc(-c3ccnc(N4CCNCC4)c3)cc2Cl)c(CC(C)C)nn1C` 1720

====

- assay-notes: Phase I trial of oral PCLX-001: plasma pharmacokinetics, noncompartmental analysis (Phoenix WinNonlin 8.3)
- Format: in vivo, human
- assay-conditions: human, plasma, po, 140 mg, Table 10; Patient 115-024-013; Day 1; Dose 140 mg QD oral; Concomitant Pantoprazole Yes
- Source text: The clinical trial is entitled “Phase I Trial of PCLX-001 in B-cell Non-Hodgkin Lymphoma and Advanced Solid Malignancies” and registered at clinicaltrials.gov as NCT04836195. It is a phase I dose-escalation study of oral PCLX-001, conducted in a multicenter, non-randomized, open-label, non-controlled design. The study is comprised of two parts: Part A (single-agent dose escalation) and Part B (single-agent expansion cohorts). […]
parameter-measured: Cmax (ng/mL)
Kindly provide the numeric value in ng/mL only, without the unit symbol.

// fetch Cmax given entry Cc1c(NS(=O)(=O)c2c(Cl)cc(-c3ccnc(N4CCNCC4)c3)cc2Cl)c(CC(C)C)nn1C [PCLX-001] 2190

====

- assay-notes: Phase I trial of oral PCLX-001: plasma pharmacokinetics, noncompartmental analysis (Phoenix WinNonlin 8.3)
- Format: in vivo, human
- assay-conditions: human, plasma, oral, 40 mg, Table 5; on Pantoprazole; 40 mg; N 1; Day 15; read-out: Tmax
parameter-measured: Tmax (h)
Kindly provide the numeric value in h only, without the unit symbol.

// fetch Tmax given entry `Cc1c(NS(=O)(=O)c2c(Cl)cc(-c3ccnc(N4CCNCC4)c3)cc2Cl)c(CC(C)C)nn1C` 2
